experiment: plasmodial surface anion channel blockers, osmotic lysis – cell-based, P. falciparum Indochina, OD700, 1 h, primary screen (AID 1154); details: P. falciparum Indochina infected RBC osmotic lysis, higher = more signal, called active from +8 up or from −8 down
Label condition not met if z-score falls below 3; label condition met in every other case.

{"molecule": "COC(=O)[C@@]1(Cc2ccccc2)[C@H]2c3cc(C(=O)N4CCCC4)n(Cc4ccc(O)c(OC)c4)c3C[C@H]2CN1C(=O)c1ccccc1", "group label": "condition met"}
{"molecule": "COC(=O)C[C@H]1O[C@@H](CCc2ccccc2)[C@@H](C)[C@@H]1[Si](C)(C)c1ccc(OC)cc1", "group label": "condition not met"}
{"molecule": "COCCCNC(=O)[C@@]1(Cc2ccccc2CN=[N+]=[N-])N=C(c2ccc(OCCCO)cc2)O[C@H]1c1ccccc1CN=[N+]=[N-]", "group label": "condition met"}
{"molecule": "O=C1OCCC=C[C@H]2OC34C=CCN(c5ccc(Cl)cc5)C(=O)[C@H]3N(CCCO)C(=O)[C@@H]4C12 (some centres not stated)", "group label": "condition not met"}
{"molecule": "O=C(NC1CC1)[C@@H]1c2ccccc2C(=O)N(Cc2cc(F)cc(C(F)(F)F)c2)[C@H]1c1ccc(CO)cc1", "group label": "condition not met"}
{"molecule": "CS(=O)(=O)CCOC(=O)C1=CC(CCCO)=CC(c2ccc(CN3CCCC3)cc2)N(Cc2cccc(OC(F)(F)F)c2)C=C1C(=O)OCCS(C)(=O)=O (configuration not stated)", "group label": "condition not met"}

Next item in the queue.
Could you tell me if the measured z-score of COC(=O)[C@@]1(Cc2ccccc2)[C@H]2c3cc(C(=O)N4CCCC4)n(Cc4c(CO)[nH]cc(C)c4=O)c3C[C@H]2CN1C(=O)c1ccccc1 reaches 3 or more? condition not met

* * *

experiment: compound effects on hepatocellular carcinoma cell viability – HepG2, calcein-AM fluorescence, 48 h, basal, profiling panel (AID 1164); conditions: higher = more signal; note: test concentration not given here
property label: z-score
Number, no unit, nothing else.

{"molecule": "O=C1C2C=CC(C(O)c3cc(C(F)(F)F)cc(C(F)(F)F)c3)N(Nc3ccccc3)C2C(=O)N1c1ccccc1 (stereo not drawn)", "meas value": 0.662}

Let us move to another entry and its z-score.
Documented z-score of CCCNC(=O)[C@@]1(Sc2ccc(C)cc2)CC(=O)N(Cc2ccccc2C(F)(F)F)[C@@H]1c1ccc(CO)cc1I : -1.14

* * *

assay: probe aEGFR binding to arrayed compounds – biochemical, biotinylated probe, 635/667 nm fluorescence, primary screen (AID 1097); details: small-molecule microarray, higher = more signal;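 note: probe is a biotinylated anti-EGFR antibody binding compounds printed on slides; score combines fluorescence near 667 nm and signal to noise of each spot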
Quick reference: composite z-score of the listed items.

// solved cases for composite z-score follow
{"compound": "O=C(CS)NCCCCCNC(=O)[C@@H]1C[C@@H]2C(=O)NCC(=O)N2[C@@H]1c1cccc(OCCO)c1", "property label": "composite z-score", "meas value": -0.0466}
{"compound": "NCCCCCNC(=O)[C@H]1C[C@H]2C(=O)N[C@@H](Cc3ccccc3)C(=O)N2[C@H]1c1cccc(OCCO)c1", "property label": "composite z-score", "meas value": 0.0115}
{"compound": "COc1ccc(CCNC(=O)[C@@]2(C)c3ccccc3C(=O)N(c3ccc(C)cn3)[C@H]2c2ccc(CO)cc2)cc1", "property label": "composite z-score", "meas value": -0.247}
{"compound": "O=C1C2C=CC(C(O)c3ccc(-c4ccccc4)s3)N(Nc3ccccc3)C2C(=O)N1c1ccccc1 (configuration not stated)", "property label": "composite z-score", "meas value": -0.0565}
{"compound": "O=C(NCc1ccccc1)[C@@H]1c2ccccc2C(=O)N(C2Cc3ccccc3C2)[C@H]1c1ccc(CO)cc1", "property label": "composite z-score", "meas value": 0.194}
{"compound": "CO[C@H]1O[C@H](CO)[C@@H](OC(=O)Nc2ccccc2-c2ccccc2)[C@H](OC(=O)Nc2ccccc2-c2ccccc2)[C@@H]1OC(=O)Nc1ccccc1-c1ccccc1", "property label": "composite z-score", "meas value": -0.0757}

# ---- query compound ----
Please fill in: composite z-score reported for CC(C)NC(=O)[C@@]1(Cc2ccccc2I)c2ccccc2C(=O)N(Cc2ccccc2Cl)[C@H]1c1ccc(CO)cc1 = -0.0181

* * *

Each record here notes measured z-score.
assay: JC-1 mitochondrial signal, unstimulated HepG2 cells – cell-based, JC-1 fluorescence, 24 h, 100 nL compound, profiling panel (AID 1167); conditions: HepG2 mitochondrial potential, higher = more signal; note: test concentration not given here
Lab note: write the figure by itself, no unit.

Guide cases for z-score, answers given:
{"molecule": "CCOc1ccc(N2C(=O)CSC2c2cccc([N+](=O)[O-])c2)cc1 (configuration not stated)", "property label": "z-score", "meas value": 1.61}
{"molecule": "O=C(NC1CC1)[C@@H]1c2ccccc2C(=O)N(C2Cc3ccccc3C2)[C@H]1c1ccc(CO)cc1", "property label": "z-score", "meas value": 2.96}
{"molecule": "[N-]=[N+]=NCc1ccccc1[C@H]1OC(c2ccc(OCCCO)cc2)=N[C@@]1(Cc1ccccc1)C(=O)N1CCCCC1", "property label": "z-score", "meas value": 0.732}
{"molecule": "O=C1NC(=O)C2C1C=CC(C(O)c1ccc(I)cc1)N2Nc1ccccn1 (configuration not stated)", "property label": "z-score", "meas value": -1.35}
{"molecule": "C#CCNCc1ccccc1", "property label": "z-score", "meas value": -0.221}
{"molecule": "NC(=O)NCC#Cc1ccc2c(c1)[C@]1(C(=O)N2)[C@H](C(=O)O)[C@H]2C(=O)O[C@H](c3ccccc3)[C@H](c3ccccc3)N2[C@@H]1c1ccc(O)cc1", "property label": "z-score", "meas value": -1.43}

The molecule listed as COc1ccc([C@H]2OC[C@@H]3CCC(=O)N32)cc1 shows z-score equal to 0.0252

Looking up O=C1NC(=O)C2C1C=CC(C(O)c1ccc(I)cc1)N2Nc1ccc(Cl)cc1Cl (configuration not stated) , I found its z-score recorded as -2.51

The recorded z-score for entry COc1ccc([Si](C)(C)[C@H]2[C@H](CCO)O[C@@]3(C(=O)N(Cc4ccccc4)c4ccc(N5CCCCC5=O)cc43)[C@@H]2C)cc1 equals 2

Item: O=C1O[C@H](c2ccccc2)[C@H](c2ccccc2)N2[C@H]1[C@@H](C(=O)NC[C@H](O)c1ccccc1)[C@]1(C(=O)Nc3ccc(C#CC4=CCCCC4)cc31)[C@H]2c1ccccc1OCCO | z-score: -2.22

// z-score value for C=CC[C@@]1(C(=O)N2CCCCC2)N=C(c2ccc(OCCCO)cc2)O[C@@H]1c1ccccc1N=[N+]=[N-] : 1.02

So for CC(=O)n1cc(C(O)C2C=CC3C(=O)NC(=O)C3N2Nc2ccccn2)c2ccccc21 (configuration not stated) , the logged z-score turned out to be -0.743

Query CC(C)CCC[C@@H](C)[C@H]1CC[C@@]2(C)C3=C(CC[C@]12C)[C@@]1(C)CC[C@H](OC(=O)c2ccc(C(F)(F)F)nc2)C(C)(C)C1CC3 (some centres not stated) yields z-score of 0.726

Sample CC(C)(C)OC(=O)CC[C@@]1(C(=O)N2CCCCC2)N=C(c2ccc(OCCCO)cc2)O[C@@H]1c1ccccc1 ; z-score observed: 1.59

Noted for CCOC(=O)C1=CC[C@@H](c2ccccc2)N(S(=O)(=O)c2ccc(C)cc2)[C@H]1c1ccc(CC)cc1 : its z-score reads 5.94

z-score measured on O=C1N(CCS(=O)(=O)c2ccccc2)c2ccccc2[C@@H]2OC(c3ccc(OCCCO)cc3)=N[C@]12Cc1ccccc1 = 0.637

// CC(=CC1CCCCC1)[C@@H](NC(=O)c1cccnc1)c1ccc(-c2ccccc2)cc1 : z-score value = -2.99

* * *

tested on: Wnt5a (protein binding on small-molecule microarray); test: small molecules binding Wnt5a protein – biophysical, small-molecule microarray, 635/667 nm fluorescence, primary screen (AID 1142); settings: 635 nm fluorescence, higher = more signal;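 note: fluorescence read at 667 nm with signal to noise per printed feature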
Collected composite z-score values appear next to each entry.
Answer field: number only, no words.

Some compounds with known composite z-score results, for comparison:
{"compound": "CC(C)[Si](C#CCCCC#N)(O[C@H](c1ccccc1)c1cn(Cc2cccc(Cl)c2)nn1)C(C)C", "composite z-score": 0.182}
{"compound": "O=C(O)[C@H]1C[C@H]2C(=O)N3CCC[C@H]3C(=O)N2[C@H]1c1ccc(O)cc1", "composite z-score": -0.32}
{"compound": "OCC1C=C(/C=C/c2ccccc2)CN1Cc1ccccc1Br (centres undefined)", "composite z-score": 0.307}

The record that follows has no composite z-score shown yet.
The compound C=CCNC(=O)[C@H]1[C@@H]2C(=O)O[C@@H](c3ccccc3)[C@@H](c3ccccc3)N2[C@@H](c2ccc(O)cc2)[C@]12C(=O)Nc1ccc(C#CCCO)cc12 , when measured on Wnt5a (protein binding on small-molecule microarray), yielded composite z-score of -0.169
